- Test system: OVXF 1544
- assay: 3D clonogenic assay (PDX)
- Assay type: cell-based, human
- setupConditions: Homo sapiens; OVXF 1544, Ovarian; read-out: abs. IC50
property: IC50

Prompt: Give OVXF 1544 IC50 for the following compound: O[C@H](c1cc(-c2ccc(Cl)cc2)nc2ccccc12)[C@@H]1CCCCN1
Completion: 13.5 µM
